Examples of compounds with documented LC retention time follow.
assay: RP, Waters ACQUITY UPLC HSS T3, 100 × 2.1 mm, 1.8 µm, 30 °C, 0.3 mL/min, estimated dead time 0.73 min; A: water + 0.1% formic acid, pH 3; B: methanol + 0.1% formic acid, pH 3; gradient (min/%B) 0/0 6/0 56/100 60/100; conditions: stereoisomer not certain
Quick note: give the figure in min, leave out the unit.

[
  {
    "compound": "CCCCCCCCC=CCCCCCCCC(=O)OC(COC(=O)CCCCCCCCCCCCCCC)COP(=O)([O-])OCC[N+](C)(C)C [L-a-Phosphatidylcholine]",
    "value.unit": "min",
    "LC retention time": 59.9
  },
  {
    "compound": "COc1cc(C=NN=Cc2cc(OC)c(O)c(OC)c2)cc(OC)c1O [syringaldazine]",
    "value.unit": "min",
    "LC retention time": 35.5
  },
  {
    "compound": "O=C(O)CC(=O)O [malonic acid]",
    "value.unit": "min",
    "LC retention time": 2.11
  },
  {
    "compound": "O=C(O)c1ccco1 [furan-2-carboxylic acid]",
    "value.unit": "min",
    "LC retention time": 12.7
  },
  {
    "compound": "N=C(N)N [guanidine]",
    "value.unit": "min",
    "LC retention time": 1.3
  }
]

input: For the compound O=C(O)C(=O)Cc1c[nH]c2ccccc12 [indole-3-pyruvic acid] , report LC retention time.
output: 30.3
